pKd values, listed per item
Target: T1, rh-TNFR2-His (recombinant human TNFR2, His tag) (human, UniProt P20333 23-257)
T1 construct: Soluble antigen of the ForteBio assay; not shown: His tag
T1 sequence (looked up): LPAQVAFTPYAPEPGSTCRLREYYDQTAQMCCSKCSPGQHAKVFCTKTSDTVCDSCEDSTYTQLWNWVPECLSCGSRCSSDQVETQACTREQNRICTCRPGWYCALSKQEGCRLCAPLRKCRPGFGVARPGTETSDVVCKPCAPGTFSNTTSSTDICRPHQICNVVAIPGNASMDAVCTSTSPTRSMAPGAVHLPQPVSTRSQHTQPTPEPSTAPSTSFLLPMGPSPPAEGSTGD
Assay: BLI (ForteBio), antibody on sensor, 100 nM rh-TNFR2-His in solution, 1:1 model
# log scale: pKd equals minus log10 of the concentration in mol/L

Below: 3 binders and their reported pKd.
{"BINDER": "chimeric antibody 72G8 (antibody, human IgG1, kappa, V domains shown) VH: EVQLQQSGAELARPGASVMLSCKASGYTFTSYWMQWLKQRPGQGLEWIGAIYPGDGDTRYTQKFKGKATLTADKSSSTAYMQLSSLASEDSAVYYCVRDDGLYYAMDYWGQGTSVTVSS VL: QIVLTQSPTIMSASLGERVTMTCTASSSVSSSYLHWYQQKPGSSPKLWIYSTSNLASGVPARFSGSGSGTSYSLTISSMEAEDAATYYCHQYHRSPPTFGGGTKLEIKR", "TEST VALUE": 8.35}
{"BINDER": "chimeric antibody 3C4 (antibody, human IgG1, kappa, V domains shown) VH: QVQLQQSGPELVKPGASVTISCKASDYSFTNYYIHWVKQRPGQGLEWIGWIYPGNVITKYHEKFKGKAILTADTSSTTAYMQLNSLTSEDSAVYFCARSRATGYFDYWGQGTTLTVSS VL: DIQMTQTTSSLSASLGDRVTISCRASQDIRNYLNWFQQKPDGTIKLLIYYTSRLHSGVPSRFSGSGSGTDYSLTISNLEQEDMATYFCQQFNTLPWTFGGGTKLEIKR", "TEST VALUE": 8.87}
{"BINDER": "chimeric antibody 69B1 (antibody, human IgG1, kappa, V domains shown) VH: QIQLVQSGPELKKPGETVKISCKASGYTFTDYSMNWVKQAPGKGLKWMGWLNTETGEPIYADDFKGRFVFSLETSASTAYLEINNLNDEDTATYFCAREAIYYGTSYVLDYWGQGTSVTVSS VL: DIVLTQSPASLAVSLGQRATISCRASESVEYYGTNFMQWYQQKPGQPPKLLIYSASNVESGVPARFSGSGSGTDFSLNIHPVEEDDIAVYFCQQSRKDPSTFGEGTNLEIKR", "TEST VALUE": 9.58}

stdin: Could you tell me which pKd is on file for positive control antibody OPI (humanized antibody SBT-002e in WO 2017083525) (antibody, V domains shown, also called Benchmark OPI) VH: QVTLKESGPALVKPTQTLTLTCTFSGFSLSTSGMGVGWIRQPPGKALEWLAHIWWDDDKFYNPSLKSRLTISKDTSKNQVVLTMTNMDPVDTATYYCARLTGTRYFDYWGQGTTVTVSS VL: DVQMTQSPSSLSASVGDRVTITCKASQDINKFIAWYQQKPGKAPKLLIHYTSTLQPGIPSRFSGSGSGRDYTFTISSLQPEDIATYYCLQYGNLWTFGGGTKVEIK ?
stdout: 8.38
